Hi there, I'd appreciate the recorded IC50 for every entry that follows.
Report as a plain number; the unit nM is understood.

Report value: IC50, system: FAK enzyme (6 His tagged kinase domain, GenBank NP—722560) (Homo sapiens, UniProt Q05397), molecule: CN1CCC(n2cc(Nc3cc(Nc4cccc5c4C(=O)N(C)CC5)c(F)cn3)cn2)CC1
Sequence (Q05397 422-680 limits assumed): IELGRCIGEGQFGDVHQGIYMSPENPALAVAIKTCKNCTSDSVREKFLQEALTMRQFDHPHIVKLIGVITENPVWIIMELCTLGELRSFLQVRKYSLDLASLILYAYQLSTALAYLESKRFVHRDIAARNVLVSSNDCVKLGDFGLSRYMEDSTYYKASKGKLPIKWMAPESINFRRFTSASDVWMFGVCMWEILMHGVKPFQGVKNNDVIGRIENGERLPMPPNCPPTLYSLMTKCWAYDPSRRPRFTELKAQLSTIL
465

Report value: IC50, system: FAK enzyme (6 His tagged kinase domain, GenBank NP—722560) (Homo sapiens, UniProt Q05397), molecule: CNC(=O)c1ccccc1Nc1cc(Nc2cc(C)nn2C)ncc1Cl
29

Report value: IC50, system: FAK enzyme (6 His tagged kinase domain, GenBank NP—722560) (Homo sapiens, UniProt Q05397), molecule: CCn1cc(Nc2cc(Nc3ccccc3C(=O)NC)c(C(F)(F)F)cn2)c(C)n1
6
